biological target: Sigma non-opioid intracellular receptor 1 (Homo sapiens); test: DRUGMATRIX: Sigma1 radioligand binding (ligand: [3H] Haloperidol); type: cell membranes, Jurkat, Membrane; conditions: Not Active = under 50% inhibition at 10 µM; read-out: IC50
Sequence (Q99720 whole entry): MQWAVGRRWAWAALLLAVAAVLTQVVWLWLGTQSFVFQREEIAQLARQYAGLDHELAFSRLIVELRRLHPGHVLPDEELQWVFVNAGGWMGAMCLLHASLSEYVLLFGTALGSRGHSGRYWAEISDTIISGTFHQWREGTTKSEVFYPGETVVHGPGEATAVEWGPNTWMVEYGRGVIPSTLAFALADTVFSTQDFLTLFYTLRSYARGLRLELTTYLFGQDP
pIC50: −log10 of the molar value.
pIC50 of 6 or higher: YES. Under 6: NO.

INSERT INTO assay_data (compound, assayed_system, category_label) VALUES
  ('CN1CCCC(CN2c3ccccc3Sc3ccccc32)C1 (configuration not stated)', 'Sigma non-opioid intracellular receptor 1 (Homo sapiens)', 'YES'),
  ('CC(C)NC[C@H](O)COc1cccc2ccccc12', 'Sigma non-opioid intracellular receptor 1 (Homo sapiens)', 'NO'),
  ('CCCCCCCCNC(C)C(O)c1ccc(SC(C)C)cc1 (configuration not stated)', 'Sigma non-opioid intracellular receptor 1 (Homo sapiens)', 'YES'),
  ('CC(C)NC[C@@H](O)COc1cccc2ccccc12', 'Sigma non-opioid intracellular receptor 1 (Homo sapiens)', 'NO'),
  ('OCCOCCN1CCN(C2=Nc3ccccc3Sc3ccccc32)CC1', 'Sigma non-opioid intracellular receptor 1 (Homo sapiens)', 'NO'),
  ('CN(C)C(=O)C(CCN1CCC(O)(c2ccc(Cl)cc2)CC1)(c1ccccc1)c1ccccc1 [LOPERAMIDE]', 'Sigma non-opioid intracellular receptor 1 (Homo sapiens)', 'YES');
